Catalogue of MIC readings, one per entry.
System: Pseudomonas aeruginosa ATCC 9027
test_protocol: Antibacterial assay, broth dilution MIC
Assay type: cell-based
cond: ATCC9027; Pseudomonas aeruginosa ATCC 9027; 37 °C, 18 h; read-out: MIC
endpoint: MIC

compound	experimental_value
NC(=O)c1cccc2nc3ccccc3nc12 [Compound 9, phenazine-1-carboxamide]	> 64 µg/mL
C[C@H]1COc2c(N3CCN(C)CC3)c(F)cc3c(=O)c(C(=O)O)cn1c23 [LEV, levofloxacin, reference compound]	2 µg/mL
O=C(O)c1cccc2c1Nc1ccccc1N2C(=O)CO	> 64 µg/mL
CC1=CC2C3=C(OC(C)(C)C2CC1O)C(=O)c1c(O)cc(O)cc1C3=O (centres unmarked)	> 64 µg/mL
CC1=CC2C3=C(OC(C)(C)C2CC1)C(=O)c1c(O)cc(O)cc1C3=O (centres unmarked)	> 64 µg/mL

====

target_or_test_system: UniProt:P53341
Sequence (P53341 whole entry): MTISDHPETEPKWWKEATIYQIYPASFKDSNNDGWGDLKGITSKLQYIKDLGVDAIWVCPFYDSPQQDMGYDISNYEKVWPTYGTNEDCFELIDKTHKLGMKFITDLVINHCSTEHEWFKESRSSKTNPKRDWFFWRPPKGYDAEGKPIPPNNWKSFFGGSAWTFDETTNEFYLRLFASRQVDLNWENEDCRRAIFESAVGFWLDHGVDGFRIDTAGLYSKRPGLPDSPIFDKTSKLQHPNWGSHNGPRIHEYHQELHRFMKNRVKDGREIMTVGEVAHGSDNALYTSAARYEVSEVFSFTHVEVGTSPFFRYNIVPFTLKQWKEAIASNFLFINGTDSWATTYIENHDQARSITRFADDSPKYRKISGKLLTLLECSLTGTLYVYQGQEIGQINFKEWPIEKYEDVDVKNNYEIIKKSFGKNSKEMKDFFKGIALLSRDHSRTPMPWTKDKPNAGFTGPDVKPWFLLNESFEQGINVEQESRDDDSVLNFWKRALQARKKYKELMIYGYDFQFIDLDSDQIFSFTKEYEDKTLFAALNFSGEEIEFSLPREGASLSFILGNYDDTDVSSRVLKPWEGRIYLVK
test_protocol: biochemical
cond: read-out: IC50, α-glucosidase inhibitory activity
pIC50: −log10 of the molar value.
endpoint: pIC50

compound	target_or_test_system	prefix_operator	experimental_value
NC(=O)c1cccc2nc3ccccc3nc12 [Compound 9, phenazine-1-carboxamide]	UniProt:P53341	=	3.98
CC1=CC2C3=C(OC(C)(C)C2CC1)C(=O)c1c(O)cc(O)cc1C3=O (centres unmarked)	UniProt:P53341	=	3.73
O=C(O)c1cccc2nc3ccccc3nc12	UniProt:P53341	<	3.10
CC1=CC2C3=C(OC(C)(C)C2CC1O)C(=O)c1c(O)cc(O)cc1C3=O (centres unmarked) [Compound 6, 12-Hydroxy-naphthgeranine A]	UniProt:P53341	=	3.94
CC1=CC2C3=C(OC(C)(C)C2CC1O)C(=O)c1c(O)cc(O)cc1C3=O (centres unmarked) [Compound 5, naphthgeranine G]	UniProt:P53341	=	4.18
